Target: T1, his-tagged human CDH6 extracellular region protein (hCDH6 ECD-his) (human, UniProt P55285 19-615)
T1 construct: also called Human CDH6-his; hCDH6-his; not shown: his tag
T1 sequence: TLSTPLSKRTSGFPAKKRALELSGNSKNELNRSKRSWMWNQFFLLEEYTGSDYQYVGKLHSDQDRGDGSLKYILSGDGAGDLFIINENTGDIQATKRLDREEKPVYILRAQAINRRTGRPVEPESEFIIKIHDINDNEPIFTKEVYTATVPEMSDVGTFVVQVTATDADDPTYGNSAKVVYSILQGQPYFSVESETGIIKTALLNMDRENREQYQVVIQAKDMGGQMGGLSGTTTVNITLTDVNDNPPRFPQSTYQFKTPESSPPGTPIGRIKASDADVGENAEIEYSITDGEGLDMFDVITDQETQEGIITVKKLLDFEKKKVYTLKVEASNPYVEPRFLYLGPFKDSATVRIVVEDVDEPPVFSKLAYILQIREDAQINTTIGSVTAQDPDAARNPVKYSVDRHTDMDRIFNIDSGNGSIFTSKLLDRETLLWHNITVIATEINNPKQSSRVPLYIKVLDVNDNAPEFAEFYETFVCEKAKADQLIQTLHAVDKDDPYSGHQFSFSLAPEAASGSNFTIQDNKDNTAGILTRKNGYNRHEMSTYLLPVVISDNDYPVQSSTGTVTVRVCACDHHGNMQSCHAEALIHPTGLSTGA
Test: ELISA, coated antigen
Attribute Measured: EC50 (nM)
Answers are plain numbers, in nM.

In the examples that follow, each entry is paired with its recorded EC50.
>>> value_measured("CHI-CDH6-1 (antibody, human IgG1, kappa, V domains shown, also called CHI-hCDH6-1; CH1-CDH6-1) VH: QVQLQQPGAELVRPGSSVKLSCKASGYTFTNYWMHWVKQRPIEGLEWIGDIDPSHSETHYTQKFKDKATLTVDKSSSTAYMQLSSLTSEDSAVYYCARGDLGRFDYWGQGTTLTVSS VL: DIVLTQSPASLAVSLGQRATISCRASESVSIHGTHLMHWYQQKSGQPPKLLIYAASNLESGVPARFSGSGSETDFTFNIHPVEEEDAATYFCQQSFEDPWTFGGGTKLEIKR")
0.04
>>> value_measured("CHI-CDH6-9 (antibody, human IgG1, kappa, V domains shown, also called chimeric antibody of murine CDH6-9) VH: QVQLQQPGAELVKPGASVKLSCKASGYTFTGYWMHWVRQRPGQGLEWIGEINPNNGGTNCNEQFKNKATLTVDKSSSTAYMQLSSLTSEDSAVFYCTISFGNYLFFDVWGAGTTVTVSS VL: DIQMTQSPASLAASVGETITITCQASENIYFSLAWYQQKQGKSPQLLIYNANTLEDGVPSRFVGSGSGTQYSMKINSIQPEDTATYFCDQTYDFPWTFGGGTKLEIKR")
0.016

Sample CHI-CDH6-8 (antibody, human IgG1, kappa, V domains shown, also called chimeric antibody of murine CDH6-8) VH: EVQLQQSGPELVKPGDSVKMSCKASGYTFTDYYMAWIKQNHGKSLEWIGYIYPNNGGTDYNQKFRGKATLTVDKSSSAAYMELHSLTSEDSAVYYCAREIGTLYGDYYAMDYWGQGTSVTVSS VL: DIQMTQSPASLSASVGETVTITCRASENIDSYLAWYQQKQGKSPQLLVYTATLLADGVPSRFSGSGSGTQYSLKINSLQSEDVARYYCQHYYSTPPTFGSGTKLEIKR ; EC50 observed: 0.033

Cited source for all entries: patent US20260234242A1
